# TARGET: Muscarinic acetylcholine receptor M1 (Homo sapiens) (UniProt P11229)
# Sequence (P11229 whole entry, looked up): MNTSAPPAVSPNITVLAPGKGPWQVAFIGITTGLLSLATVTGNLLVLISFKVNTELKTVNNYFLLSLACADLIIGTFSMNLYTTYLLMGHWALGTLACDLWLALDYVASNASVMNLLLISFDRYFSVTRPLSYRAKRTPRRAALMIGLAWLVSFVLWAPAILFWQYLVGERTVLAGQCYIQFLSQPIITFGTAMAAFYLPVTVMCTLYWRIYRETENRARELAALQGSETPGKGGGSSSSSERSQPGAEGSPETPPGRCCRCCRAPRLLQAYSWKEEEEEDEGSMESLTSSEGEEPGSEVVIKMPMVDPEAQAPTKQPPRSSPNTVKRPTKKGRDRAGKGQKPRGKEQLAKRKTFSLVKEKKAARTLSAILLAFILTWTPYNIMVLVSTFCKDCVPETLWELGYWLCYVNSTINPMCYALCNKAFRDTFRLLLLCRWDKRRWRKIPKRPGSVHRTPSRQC
# ASSAY_METHOD_TEXT: Cholinergic receptor muscarinic 1 (CHRM1) small molecule antagonists, cell-based qHTS assay (AID 1963588); note: nearly all actives have a fitted effect of over 40% in size
# APPLIED_CONDITIONS: CHRM1-CHO antagonist mode, calcium flux fluorescence; series mostly up to 61.5 µM
Records with an inconclusive call do not appear. Calls of active or inactive are those of the source. Calls come from the whole dose curve.
Outcome codes: class 1 (active), class 0 (inactive)

C=C1C[C@@]23CC[C@H]4[C@@](C)(CCC[C@@]4(C)C(=O)O[C@@H]4O[C@H](CO)[C@@H](O)[C@H](O)[C@H]4O)[C@@H]2CC[C@]1(O[C@@H]1O[C@H](CO)[C@@H](O)[C@H](O[C@@H]2O[C@H](CO)[C@@H](O)[C@H](O)[C@H]2O)[C@H]1O[C@@H]1O[C@H](CO)[C@@H](O)[C@H](O)[C@H]1O)C3
class 0
C=C(C)C(=O)OCC1CCCO1 (stereo not given)
class 0
Cc1cc(-c2ccccc2)nnc1NCCN1CCOCC1
class 0
O=c1c(-c2ccccc2)c1-c1ccccc1
class 0
Nc1cc([N+](=O)[O-])cc(Cl)c1O
class 0
Cc1cc(S(=O)(=O)O)c(N)cc1Cl
class 0
COc1cc(C(=O)OC(COCCC(C)C)CN2CCOCC2)cc(OC)c1OC (stereo not given)
class 0
CCCCCCCCCCCCCCCCCC(=O)OCCCCCCCCCCCCCC(C)C
class 0
Cc1cnc(C)c(C)n1
class 0
O=c1[nH]c(=O)n([C@H]2O[C@H](CO)[C@@H](O)[C@@H]2O)cc1/C=C\Br
class 0
CC(=O)Oc1ccc(C(C)=O)cc1
class 0
CCOC(=O)CC(=O)c1cc(F)c(Cl)nc1Cl
class 0
Nc1cccc(S(=O)(=O)O)c1
class 0
Nc1ccc(C(=O)OCCCOC(=O)c2ccc(N)cc2)cc1
class 0
C/C=C(\C)C#N
class 0
O=c1c2ccccc2nnn1CCl
class 0
C[N+]1(CC2COC(c3ccccc3)(C3CCCCC3)O2)CCCCC1 (stereo not given)
class 0
S=C1NC=NC2N=CNC12 (stereo not given)
class 0
Cc1ncc(CO)c(C=O)c1O
class 0
Cc1cccc(N(C)C(=S)Oc2ccc3c(c2)CCC3)c1
class 0
CCCCCCCCCC#N
class 0
Clc1ccc2n[nH]nc2c1
class 0
CCCC1CCCC(=O)O1 (stereo not given)
class 0
CCC=O
class 0
N[C@H]1C(O)O[C@H](CO)[C@H](O)[C@@H]1O (stereo not given in full)
class 0
CC(C)=NNC(N)=S
class 0
COCCC(=O)OC
class 0
Nc1ccc(S(=O)(=O)Nc2ccccc2)cc1
class 0
C[C@H](N)[C@H](O)c1cccc(O)c1
class 0
CCCCCCCCCCCl
class 0
CCCCCCc1ccc(N)cc1
class 0
CC(C)(C)NCCNC(C)(C)C
class 0
CN(C)CCN1CCOCC1
class 0
COc1ccc(OC)c(OC)c1
class 0
CCCCC1CCCCC(=O)O1 (stereo not given)
class 0
CCCCCCCCCCCCCC(=O)OCC
class 0
O=C(CCCCC(=O)Nc1c(I)cc(I)c(C(=O)O)c1I)Nc1c(I)cc(I)c(C(=O)O)c1I
class 0
O=C1c2ccccc2C(=O)c2cc(O)ccc21
class 0
CCOCC(O)COc1ccc(NC(=O)CC[S+](C)C)cc1 (stereo not given)
class 0
Oc1cc2ccccc2cc1O
class 0
c1cc2c3c(c1)ccc1cccc(c13)C2
class 0
CN1C(=O)N(c2ccccc2Br)Cc2cnc(Nc3ccc4c(c3)OCC(CO)O4)nc21 (stereo not given)
class 0
C=C[Si](C)(C)O[Si](C)(C)C=C
class 0
C=C(C)C(=O)OCCCCCCCCCCOC(=O)C(=C)C
class 0
CN(C[C@@H](CC[N+]12CCC(C3CCCCC3)(CC1)CC2)c1ccc(Cl)c(Cl)c1)C(=O)c1cc(C(F)(F)F)cc(C(F)(F)F)c1
class 1
